// provenance: patent US7550469B2

# SYSTEM NAME: cloned human dopamine D3 receptors (Homo sapiens)
# Construct: expressed in transfected cells; membrane homogenate
# Sequence (P35462 whole entry): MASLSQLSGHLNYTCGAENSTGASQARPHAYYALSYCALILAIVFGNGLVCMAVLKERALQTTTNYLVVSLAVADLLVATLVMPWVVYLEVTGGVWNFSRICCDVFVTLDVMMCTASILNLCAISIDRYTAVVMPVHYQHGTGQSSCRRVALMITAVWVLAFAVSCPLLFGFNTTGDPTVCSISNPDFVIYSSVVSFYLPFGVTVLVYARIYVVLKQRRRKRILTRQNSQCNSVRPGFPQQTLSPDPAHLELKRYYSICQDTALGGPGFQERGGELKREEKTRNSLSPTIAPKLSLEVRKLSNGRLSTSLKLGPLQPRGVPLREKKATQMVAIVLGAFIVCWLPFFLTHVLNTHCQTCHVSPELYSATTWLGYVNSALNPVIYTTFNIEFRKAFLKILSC
# PROTOCOL SUMMARY: [N-Methyl-3H]Spiroperidol binding to cloned human dopamine D3 receptors (Protocol 1)
# CONDITIONS: read-out: D3K1
REPORTED ENDPOINT: Ki (nM)

COMPOUND: O=C(NC/C=C\CN1CCN(c2csc3cc(C(F)(F)F)ccc23)CC1)C1CCCC1 [compound 826334]
SYSTEM NAME: cloned human dopamine D3 receptors (Homo sapiens)
REPORTED ENDPOINT: Ki
ASSAY RESULT: 21
--
COMPOUND: Cn1c(C(=O)NCCCCCCN2CCN(c3csc4cc(C(F)(F)F)ccc34)CC2)cc2ccccc21 [compound 826739]
SYSTEM NAME: cloned human dopamine D3 receptors (Homo sapiens)
REPORTED ENDPOINT: Ki
ASSAY RESULT: 2.1
--
COMPOUND: COc1ccccc1C(=O)NCCCCN1CCN(c2csc3cc(C(F)(F)F)ccc23)CC1 [compound 815554]
SYSTEM NAME: cloned human dopamine D3 receptors (Homo sapiens)
REPORTED ENDPOINT: Ki
ASSAY RESULT: 9.7
--
COMPOUND: O=C(N[C@H](CO)CCCN1CCN(c2csc3cc(C(F)(F)F)ccc23)CC1)c1ccc2ccccc2c1 [compound 815697]
SYSTEM NAME: cloned human dopamine D3 receptors (Homo sapiens)
REPORTED ENDPOINT: Ki
ASSAY RESULT: 294

I = Cc1ccccc1C(=O)NCCCCCCN1CCN(c2csc3cc(C(F)(F)F)ccc23)CC1 [compound 826753]
II = O=C(NC/C=C\CN1CCN(c2csc3cc(C(F)(F)F)ccc23)CC1)c1ccc(F)cc1 [compound 826341]
Prompt: Identify the item whose Ki is the smaller number: I or II Refer to your chosen item by its label in the answer.
Completion: I
